- Test system: CRF-binding protein / CRF receptor 2 complex (human)
- assayMethodText: agonists of CRF-BP/CRF-R2 complex, primary screen, cell-based, HEK293, calcium dye fluorescence, uHTS (AID 588473)
- appliedConditions: calcium dye fluorescence (FLIPR), at 13.2 µM, percent of saturating CRF peptide response
Hit rate of the full screen: of about 350,000 compounds, about 1,600 (0.46%) were called active.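 Rule for the calls: active = activation of at least 50%, plus an integration ratio under a set limit after plate pattern correction; inactive = the rest.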 Many of the other results were omitted from the sample, so actives are more common in it than they were.
Write down the outcome that applies. Available outcomes: active, inactive

Could you check what this test reported for Brc1ccc(C2=CC(c3ccco3)n3ncnc3N2)cc1 (stereo not given) ?
active

Query: recorded result category for COc1cccc(-c2nnc(NC(=O)c3ccc(S(=O)(=O)N(CC(C)C)CC(C)C)cc3)o2)c1 in this test
active

Called result for CCCS(=O)(=O)N1CCCC(C(=O)NCCN2CCCCC2C)C1 (stereo not given)
inactive

Could you kindly confirm the outcome this assay logged for CCOc1ccccc1C1CC(c2ccccc2)Nc2nc(N)nn21 (stereo not given) ?
inactive

// return assay outcome for CCOc1ccc(C2=CC(c3ccccc3)n3ncnc3N2)cc1 (stereo not given)
active

Called result for COc1cc(-c2nnc(NC(=O)CS(=O)(=O)c3ccc(Cl)cc3)o2)cc(OC)c1OC
inactive

Each compound tested received a call. Report the one for COc1ccc(-c2nnc(NC(=O)CS(=O)(=O)c3ccc(Cl)cc3)o2)c(OC)c1 .
inactive

Field: outcome | Entry: COc1ccc([N+](=O)[O-])cc1NC(=O)CC1SC(=Nc2cccc(C)c2C)N(/N=C(\C)c2ccc(C)cc2)C1=O (stereo not given)
inactive

Give the logged outcome of this assay for the following compound: O=C1CCC/C=C/C[C@@H](CC(=O)N(CCO)Cc2ccccc2)C(=O)NC[C@H](c2ccccc2)O1
inactive

What classification did CCOc1ccc(NC(=O)c2ccc(CSc3nnnn3C)cc2)cc1 end up with in this test?
inactive

Hello, the source for this data is PubChem BioAssay AID588473, in case you need it.
